Where these numbers come from: patent US6388071B2

measurement-name: melting point

molecule	melting point
CC(O)CC#Cc1ccc(C(CC2CCCC2)C(=O)Nc2nccs2)cc1 (stereo not drawn)	162 to 163 °C
CCC(C)(O)C#Cc1ccc(C(CC2CCCC2)C(=O)Nc2nccs2)cc1 (stereo not drawn)	172 to 174 °C

Lookup result for O=C(Nc1nccs1)C(CC1CCCC1)c1ccc(C#Cc2ccccn2)cc1 (stereo not drawn) ; measured melting point: 185 to 187 °C

The molecule CN(C)CC#Cc1ccc(C(CC2CCCC2)C(=O)Nc2nccs2)cc1 (stereo not drawn) showed melting point equal to 164 to 167 °C

Lookup result for COCC#Cc1ccc(C(CC2CCCC2)C(=O)Nc2nccs2)cc1 (stereo not drawn) ; measured melting point: 170 to 172 °C

Lab note: O=C(Nc1nccs1)C(CC1CCCC1)c1ccc(C#CCO)cc1 (stereo not drawn) gave melting point of 220 to 222 °C

get_value(item= O=C(Nc1nccs1)C(CC1CCCC1)c1ccc(C#CC2(O)CCCCC2)cc1 (stereo not drawn) , readout=melting point) returns 172 to 173 °C

So, O=C(Nc1nccs1)C(CC1CCCC1)c1ccc(C#Cc2cncnc2)cc1 (stereo not drawn) ? Its melting point was 149 to 151 °C

Record C#Cc1ccc(C(CC2CCCC2)C(=O)Nc2nccs2)cc1 (stereo not drawn) . Reported melting point: 181 to 183 °C
